tested target: T1, human Aβ pE3-18 peptide, pEFRHDSGYEVHHQKLV (human)
T1 construct: The range 3-18 counts on the Aβ peptide; also called pE3-Aβ18; pE3-Aβ peptide
T1 peptide: [pGlu]FRHDSGYEVHHQKLV
assay comment: SPR, 1:1 Langmuir fit
Non-standard residues stand in square brackets, D forms with d. No end group written: not given here. pGlu = O=C1CC[C@@H](C(=O)O)N1
readout kind: koff (s⁻¹)
Give a bare numeral; the unit s⁻¹ is implied.

# input Fill in koff for record humanized antibody clone #6 sequence variant VH: SEQ ID NO: 27, VL: SEQ ID NO: 13 (antibody, human IgG1, V domains shown) VH: QVQLVQSGAEVKKSGASVKVSCKASGYSFTGHTMNWVRQAPGQGLEWMGLINPSNGVTRYNQKFQGRVTITRDTSTTTVHMELTSLTSEDTATYYCTREAKREWDETYWGQGTLVTVSS VL: DVVMTQSPLSLPVTLGQPASISCKSSQSLLYSDGKTYLNWFQQRPGQSPRRLAYLVSKLDSGVPDRFSGSGSGTDFTLKISRVEAEDVGVYYCVQGTHFPFTFGGGTKVEIK
# output 0.00413

# input Fill in koff for record humanized antibody clone #6 sequence variant VH: SEQ ID NO: 27, VL: SEQ ID NO: 14 (antibody, human IgG1, V domains shown) VH: QVQLVQSGAEVKKSGASVKVSCKASGYSFTGHTMNWVRQAPGQGLEWMGLINPSNGVTRYNQKFQGRVTITRDTSTTTVHMELTSLTSEDTATYYCTREAKREWDETYWGQGTLVTVSS VL: DVVMTQSPLSLPVTLGQPASISCKSSQSLLYSDGKTYLNWFQQRPGQSPRRLTYLVSKLDSGVPDRFSGSGSGTDFTLKISRVEAEDVGVYYCVQGTHFPFTFGGGTKVEIK
# output 0.00323

# input Fill in koff for record humanized antibody clone #6 sequence variant VH: SEQ ID NO: 27, VL: SEQ ID NO: 15 (antibody, human IgG1, V domains shown) VH: QVQLVQSGAEVKKSGASVKVSCKASGYSFTGHTMNWVRQAPGQGLEWMGLINPSNGVTRYNQKFQGRVTITRDTSTTTVHMELTSLTSEDTATYYCTREAKREWDETYWGQGTLVTVSS VL: DVVMTQSPLSLPVTLGQPASISCKSSQSLLHSDGKTYLNWFQQRPGQSPRRLTYLVSKLDSGVPDRFSGSGSGTDFTLKISRVEAEDVGVYYCVQGTHFPFTFGGGTKVEIK
# output 0.00415

# input Fill in koff for record humanized antibody clone #6 sequence variant VH: SEQ ID NO: 24, VL: SEQ ID NO: 14 (antibody, human IgG1, V domains shown) VH: QVQLVQSGAEVKKSGASVKVSCKASGYSFTGHTMNWVRQAPGQGLEWMGLINPSNGVTRYNQKFQGRVTITRDTSTTTVHMELTSLTSEDTAVYYCTREAKREWDETYWGQGTLVTVSS VL: DVVMTQSPLSLPVTLGQPASISCKSSQSLLYSDGKTYLNWFQQRPGQSPRRLTYLVSKLDSGVPDRFSGSGSGTDFTLKISRVEAEDVGVYYCVQGTHFPFTFGGGTKVEIK
# output 0.00576

# input Fill in koff for record humanized antibody clone #6 sequence variant VH: SEQ ID NO: 70, VL: SEQ ID NO: 14 (antibody, human IgG1, V domains shown) VH: QVQLVQSGAEVKKSGASVKVSCKASGYSFTGHTMNWVRQAPGQGLEWMGLINPSNEVTRYNQKFQGRVTITRDTSTTTVHMELTSLTSEDTATYYCTREAKREWDETYWGQGTLVTVSS VL: DVVMTQSPLSLPVTLGQPASISCKSSQSLLYSDGKTYLNWFQQRPGQSPRRLTYLVSKLDSGVPDRFSGSGSGTDFTLKISRVEAEDVGVYYCVQGTHFPFTFGGGTKVEIK
# output 0.00357
